Values were extracted from patent US9133104B2.

test system: U937 cancer cell line; experiment: Cell inhibition assay (SRB cell viability), U937; format: cell-based; settings: Homo sapiens, U-937, U937 cells, 72 h, IC50 range
pIC50: −log10 of the molar value.
# key: entry, value: pIC50

Previously resolved entries follow.
[
  {
    "molecule": "O=C(NO)c1cc2ccc(CNc3cccc(CN[C@H](C(=O)OC4CCCC4)c4ccccc4)c3)cc2s1",
    "pIC50": "5.48 to 6.48"
  },
  {
    "molecule": "COc1ccc2[nH]c3c(c2c1)CCN(C(=O)CCCCCCC(=O)NO)C3C(=O)N[C@H](C(=O)OC1CCCC1)c1ccccc1 (stereo partly drawn)",
    "pIC50": "5.48 to 6.48"
  },
  {
    "molecule": "O=C(CCCCCCC(=O)Nc1ccc(C(=O)N[C@H](C(=O)OC2CCCC2)c2ccccc2)cc1)NO",
    "pIC50": "5.48 to 6.48"
  }
]

For the next question, use this molecule.
In: Which pIC50 is reported for this molecule? O=C(NO)c1cc2ccc(CNCc3ccc(CN[C@H](C(=O)OC4CCCC4)c4ccccc4)cc3)cc2s1
Out: > 6.48
